Assay: Accelerated stability study of coated 0.625 mg conjugated estrogens tablets (active compounds and degradation products per USP, LOD)
Type: physicochemical
Details: sugar-coated tablets, Lot EXPWS 1246; 40c, 75% RH/2 mnth
QUANTITY NAME: % Initial (%)

1) C[C@]12CC[C@H]3C(=CCc4cc(O)ccc43)[C@@H]1CC[C@@H]2O [17b-dihydroequilin]: 107.7
2) C[C@]12CCC3=C(CCc4cc(O)ccc43)[C@@H]1CCC2=O [d8,9 dehydroesterone]: 96.0
3) C[C@]12CCc3c(ccc4cc(O)ccc34)C1CCC2O (some centres unmarked) [17b-dihydroequilenin]: 78.6
4) C[C@]12CCc3c(ccc4cc(O)ccc34)[C@@H]1CCC2=O: 107.7
5) C[C@]12CCc3c(ccc4cc(O)ccc34)[C@@H]1CC[C@H]2O [17a-dihydroequilenin]: 107.3

Origin of values: patent US7303763B2
